- Tested on: human PKK mRNA
- experimental-protocol: Antisense inhibition of human PKK mRNA in HepaRG cells, 3,000 nM (Example 1)
- Format: cell-based
- condition-info: Table 3; HepaRG cells, electroporation with 3,000 nM antisense oligonucleotide, approx. 24 hours; PKK mRNA by RT-PCR (RTS3454), relative to untreated control cells
Strand notation (5' to 3'): a small letter for the sugar, then the base; units joined by * are phosphorothioate-linked, units joined directly phosphodiester-linked; [ ] holds rarer units or linkages, { } end groups; capitals alone tell only the bases. e = 2'-O-(2-methoxyethyl) (MOE); [5mC] = 5-methylcytosine; d = 2'-deoxy (DNA)
recorded-metric: % inhibition (%)
Please respond with the number in % and leave the unit unwritten.

INSERT INTO results (substance, system, recorded_metric, data_value) VALUES
  ('531101 (eA*eT*eG*eT*eA*dA*dG*dT*dT*dA*d[5mC]*dA*dA*dG*d[5mC]*e[5mC]*eA*e[5mC]*eT*eA; antisense) [compound 531101]', 'human PKK mRNA', '% inhibition', 37),
  ('531132 (antisense eA*eG*eT*eG*eA*dG*dG*dT*dT*dA*d[5mC]*dT*d[5mC]*dA*d[5mC]*e[5mC]*eA*eG*eA*eG) [compound 531132]', 'human PKK mRNA', '% inhibition', 0),
  ('531148 (antisense eT*eA*e[5mC]*e[5mC]*e[5mC]*dA*dA*dA*dT*dT*dA*dT*dA*d[5mC]*d[5mC]*eT*eG*eG*eA*eA) [compound 531148]', 'human PKK mRNA', '% inhibition', 8),
  ('531091 (eT*e[5mC]*eA*eG*e[5mC]*d[5mC]*d[5mC]*dA*dA*dT*dG*dT*d[5mC]*d[5mC]*dT*eA*eA*e[5mC]*e[5mC]*eT; antisense) [compound 531091]', 'human PKK mRNA', '% inhibition', 35);

Task: Fill in: % inhibition of 531160 (antisense eT*eG*eA*eT*eA*dT*d[5mC]*dA*dT*d[5mC]*dA*dT*d[5mC]*d[5mC]*d[5mC]*eA*eA*eT*eG*eA) [compound 531160] is ___
Output: 13

Task: % inhibition for 531103 (eA*e[5mC]*eT*e[5mC]*eA*dT*dT*dG*d[5mC]*d[5mC]*dT*dT*dA*dA*d[5mC]*eT*e[5mC]*eA*eG*eG; antisense) [compound 531103] ?
Output: 40

Task: Endpoint output: % inhibition of 531097 (eA*e[5mC]*e[5mC]*eA*eA*dG*d[5mC]*dT*d[5mC]*dA*dG*d[5mC]*d[5mC]*dT*d[5mC]*e[5mC]*eA*eA*e[5mC]*eT; antisense) [compound 531097] . Value?
Output: 41

Task: Record request: % inhibition value, item 531129 (antisense eA*eG*e[5mC]*eA*eG*d[5mC]*dT*d[5mC]*dA*d[5mC]*dA*d[5mC]*d[5mC]*d[5mC]*dA*eA*eA*eA*eA*eG) [compound 531129]
Output: 0

Task: Reported % inhibition for 531149 (antisense eA*eG*eA*eG*eG*dT*dA*dA*dA*dG*d[5mC]*dA*dA*d[5mC]*dT*eT*eG*e[5mC]*e[5mC]*e[5mC]) [compound 531149] : what is it?
Output: 45

Task: Find the recorded % inhibition belonging to 531105 (e[5mC]*eT*e[5mC]*e[5mC]*eT*d[5mC]*d[5mC]*d[5mC]*d[5mC]*dA*dG*dG*d[5mC]*dT*dG*e[5mC]*eT*e[5mC]*e[5mC]*eT; antisense) [compound 531105] and report it.
Output: 16

Task: Look at this substance and give its reported % inhibition. 531135 (antisense eA*eA*eT*eG*eT*dT*dG*dT*dG*dA*dA*dT*dA*d[5mC]*d[5mC]*eA*eT*e[5mC]*e[5mC]*e[5mC]) [compound 531135]
Output: 16
